- tested-system: CRF1R
- method: cell-based or functional assay
measured-property: CRF1R EC50

                                     binder  assay_result
0  ZGPPISIDVPFQLLRILIEIEKQEKEKQQATTNARILARV (C-terminal amide) [SEQ ID NO 171]        206 nM
1  ZGPPISIDLPTILLRKMIEIEKQEKEKQQAANNRLLLDTI (C-terminal amide) [SEQ ID NO 50]     > 1000 nM

Now let's try a different one.
GET /values?readout=CRF1R EC50&item= ZGPPISIDLPTHLLRKMIEIEKQEKEKQQAANNRLLLDTI (C-terminal amide) [SEQ ID NO 74]
> 100 nM

Source: patent US20030148956A1
